# assayTarget: GSK3b (GST-full length GSK3b) (Homo sapiens (Human))
# Sequence (P49841 whole entry): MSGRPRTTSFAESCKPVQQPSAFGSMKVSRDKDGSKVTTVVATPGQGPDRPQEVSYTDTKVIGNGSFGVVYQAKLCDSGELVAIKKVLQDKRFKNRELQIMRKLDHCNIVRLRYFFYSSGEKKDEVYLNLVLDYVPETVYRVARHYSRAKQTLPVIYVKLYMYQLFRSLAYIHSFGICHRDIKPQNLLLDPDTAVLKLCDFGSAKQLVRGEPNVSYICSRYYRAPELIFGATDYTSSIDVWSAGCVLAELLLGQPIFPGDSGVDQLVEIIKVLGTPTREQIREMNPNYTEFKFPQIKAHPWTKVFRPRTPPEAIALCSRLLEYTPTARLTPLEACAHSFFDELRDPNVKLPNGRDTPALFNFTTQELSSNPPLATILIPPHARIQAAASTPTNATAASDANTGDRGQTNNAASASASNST
# experiment: GSK3b TR-FRET kinase assay
# Type: biochemical
# runParameters: 1 nM GSK3b, 2 μM ATP, 30 minute preincubation, Table 16; read-out: GSK3-B TR-FRET BIOCHEMICAL (TR-FRET)
# Description: TR-FRET Assay: The assay was performed in a white, 384 well, low volume, flat bottom plate (Grenier). After a 30 minute preincubation in assay buffer with the indicated concentration of compound, the kinase activity was initiated by the addition of the substrates. […] After 60 min at room temperature the plate was read on Envision plate reader using Ex: 340 nm, Em: 615 nm and […]. The normalized 665/615 Signal ratio versus log compound concentration was analyzed by XLFIT to yield IC50 values.
measurementType: IC50

Task: State, in one line, measured IC50 of CCC1(c2cccc(C(F)(F)F)c2)C2=C(CC3(CCNC3=O)CC2=O)Nc2n[nH]cc21 (stereo not shown) [Compound 950324]
Result: 100 to 1000 nM

Task: Please report the measured IC50 for CC1(C)CC(=O)C2=C(C1)Nc1n[nH]cc1C21CCN(S(=O)(=O)c2cnn(CCF)c2)CC1 [Compound 947903]
Result: ≤ 100 nM

Task: Complete the entry with IC50 for CC1(C)CC2=C(C(=O)[C@@H]1F)C1(CCOCC1)c1c[nH]nc1N2 [Compound 883835]
Result: 100 to 1000 nM

Task: Check the records and state IC50 for CC1(C)CC(=O)C2=C(C1)Nc1n[nH]cc1C21CCCS(=O)(=O)CC1 (stereo not shown) [Compound 927343]
Result: 100 to 1000 nM

Task: Specify reported IC50 for the compound shown: CC[C@@]1(c2cccc(C(F)(F)F)c2)C2=C(Nc3n[nH]cc31)C(C)(C)NC2=O [Compound 913451]
Result: 100 to 1000 nM
